- target: HLA-DRB1*1101 (human)
- protocol.description: competition binding
- run.conditions: modification not given
pIC50: −log10 of the molar value.
measure: pIC50

RRYLENGKETLQRTD [p36] : 6.13
EQRYTCHVQHEGLPKP [p48] : 6.16
RAYLEGTCVEWLRRY [p33] : 6.06
